test system: BT-549 breast; assay: NCI tumour cell line growth inhibition, 48 h
Measured attribute: TGI

The examples below pair each entry with its known result.
Cc1sc2nc3n(c(=O)c2c1C)N=CN(c1ccc(F)cc1)C3; > 100 µM
NCCCNCCCCN1CC1; > 20.5 µM
O=c1ccc2ccc(O)cc2o1; > 100 µM
CCC[C@@H]1C(=O)N=C(N)N1C(=O)OCc1ccccc1; > 100 µM
CC(=C/c1ccccc1)/C=C1/NC(=S)N(/C=C2\C(=O)Oc3ccccc3C2=O)C1=O; > 100 µM

# return TGI for each item in the list
1. CC(C)(C)OC(=O)NCC(=O)N1CCN(C(=O)CNC(=O)OC(C)(C)C)CC1
2. C=C(C)CNC(=S)N(N)c1ccc2ccccc2c1
3. Cc1ccc([N+](=O)[O-])c2c(NCC(O)CO)ccnc12 (stereo not drawn)
4. Cc1ccc(N=C2C(=Nc3ccc(C)cc3)N(c3ccc(C)cc3)C(=S)N2C(=O)c2ccccc2)cc1
5. COc1ccc(Cn2cc3c(c2-c2cc(OC)c(OC)c(OC)c2)CCc2cnoc2-3)cc1

OUTPUT:
1. > 100 µM
2. > 100 µM
3. > 100 µM
4. > 100 µM
5. > 100 µM
